- System: SiHa cells
- experiment description: MTT antiproliferative assay, SiHa cells
- Format: cell-based, human
- study conditions: 48 h, mean ± SD
- Description: HeLa and SiHa cell lines were obtained from the Procell Life Science Technology Co., Ltd. (Wuhan, China); H8 cell line was obtained from the Shanghai HonSun Biological Technology Co., Ltd. (Shanghai, China); HUVEC cell line was obtained from the Saibaikang (Shanghai) Biotechnology Co., Ltd. (Shanghai, China); HeLa/DDP cell line was obtained from the Guangzhou Jenniobio Biotechnology Co., Ltd. (Guangzhou, China). […] The cells were monitored daily and maintained at 80% cell density. […]
pIC50: −log10 of the molar value.
recorded endpoint: pIC50

> print(dat)
                                   compound   tested.on  recorded.endpoint  recorded.value
1  N.N.[Cl][Pt][Cl] [Cisplatin, reference compound]  SiHa cells              pIC50            4.67

###

Listing of recorded IC50 by entry.
- tested on: VEGFR-2 (Homo sapiens, UniProt P35968)
- Construct: endogenous in cells
- Sequence (P35968 20-1356): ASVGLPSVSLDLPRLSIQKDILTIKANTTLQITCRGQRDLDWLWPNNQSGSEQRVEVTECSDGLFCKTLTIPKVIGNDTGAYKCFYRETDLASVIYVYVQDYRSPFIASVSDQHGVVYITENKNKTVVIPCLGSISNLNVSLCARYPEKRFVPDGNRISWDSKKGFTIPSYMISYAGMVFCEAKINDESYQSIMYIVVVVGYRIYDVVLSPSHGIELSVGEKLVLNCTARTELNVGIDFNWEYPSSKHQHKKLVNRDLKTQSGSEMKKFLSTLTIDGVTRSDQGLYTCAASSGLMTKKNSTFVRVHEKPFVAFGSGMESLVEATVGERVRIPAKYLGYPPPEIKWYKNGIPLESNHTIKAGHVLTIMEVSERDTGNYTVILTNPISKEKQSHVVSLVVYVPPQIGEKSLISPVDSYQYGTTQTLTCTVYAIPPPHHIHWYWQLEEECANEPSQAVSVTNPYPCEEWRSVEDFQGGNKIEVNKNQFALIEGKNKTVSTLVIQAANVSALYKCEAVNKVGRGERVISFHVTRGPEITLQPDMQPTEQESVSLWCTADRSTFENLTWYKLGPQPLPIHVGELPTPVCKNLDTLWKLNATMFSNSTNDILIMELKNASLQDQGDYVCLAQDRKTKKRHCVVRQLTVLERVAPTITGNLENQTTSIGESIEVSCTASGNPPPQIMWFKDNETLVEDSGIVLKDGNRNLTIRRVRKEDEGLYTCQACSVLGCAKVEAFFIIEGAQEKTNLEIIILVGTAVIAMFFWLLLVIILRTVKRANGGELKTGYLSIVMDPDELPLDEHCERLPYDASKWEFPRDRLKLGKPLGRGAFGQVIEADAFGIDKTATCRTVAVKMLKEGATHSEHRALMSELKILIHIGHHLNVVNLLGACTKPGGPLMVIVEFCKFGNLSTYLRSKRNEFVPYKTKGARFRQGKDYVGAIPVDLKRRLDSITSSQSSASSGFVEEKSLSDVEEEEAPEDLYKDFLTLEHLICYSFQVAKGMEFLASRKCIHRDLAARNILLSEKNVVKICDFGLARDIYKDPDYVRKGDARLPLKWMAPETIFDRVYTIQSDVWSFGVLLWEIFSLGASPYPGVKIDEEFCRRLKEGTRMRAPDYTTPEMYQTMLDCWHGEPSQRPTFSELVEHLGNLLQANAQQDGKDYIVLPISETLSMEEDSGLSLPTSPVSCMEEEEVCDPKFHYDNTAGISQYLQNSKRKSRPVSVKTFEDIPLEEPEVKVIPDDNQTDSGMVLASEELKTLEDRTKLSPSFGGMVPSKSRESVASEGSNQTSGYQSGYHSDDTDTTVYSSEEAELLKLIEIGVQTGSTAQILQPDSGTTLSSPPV
- experiment description: VEGFR-2 inhibition test (human p-VEGFR-2 ELISA in HeLa cells)
- study conditions: ± SD, read-out: 48h IC50 VEGFR-2 inhibitory effect
recorded endpoint: IC50 (µM)

> print(dat)
                            molecule.smiles  value.comparator  recorded.value
1  COc1cc(O)c(C(=O)/C=C/c2ccc(CN3CCC(C)CC3)cc2)cc1CN1CCCC1                 =            1.67
2  COc1cc(O)c(C(=O)/C=C/c2ccc(CN3CCC(C)CC3)cc2)cc1CN1CCC(O)CC1                 =            0.75
3                O=C(/C=C/c1ccccc1)c1ccccc1                 >              20
